Give measured Binding to 1 nM KDR, % for each item. Keep answers brief.
- assayed.target: T1, human vascular endothelial growth factor receptor-2 Fc chimera (KDR-Fc) (human, UniProt P35968 20-764)
- T1 construct: range 1-764; also called human VEGFR-2; VEGF-R2-Fc; not shown: human IgG1 Fc
- T1 sequence (P35968 20-764 limits assumed, change not shown, form in doubt): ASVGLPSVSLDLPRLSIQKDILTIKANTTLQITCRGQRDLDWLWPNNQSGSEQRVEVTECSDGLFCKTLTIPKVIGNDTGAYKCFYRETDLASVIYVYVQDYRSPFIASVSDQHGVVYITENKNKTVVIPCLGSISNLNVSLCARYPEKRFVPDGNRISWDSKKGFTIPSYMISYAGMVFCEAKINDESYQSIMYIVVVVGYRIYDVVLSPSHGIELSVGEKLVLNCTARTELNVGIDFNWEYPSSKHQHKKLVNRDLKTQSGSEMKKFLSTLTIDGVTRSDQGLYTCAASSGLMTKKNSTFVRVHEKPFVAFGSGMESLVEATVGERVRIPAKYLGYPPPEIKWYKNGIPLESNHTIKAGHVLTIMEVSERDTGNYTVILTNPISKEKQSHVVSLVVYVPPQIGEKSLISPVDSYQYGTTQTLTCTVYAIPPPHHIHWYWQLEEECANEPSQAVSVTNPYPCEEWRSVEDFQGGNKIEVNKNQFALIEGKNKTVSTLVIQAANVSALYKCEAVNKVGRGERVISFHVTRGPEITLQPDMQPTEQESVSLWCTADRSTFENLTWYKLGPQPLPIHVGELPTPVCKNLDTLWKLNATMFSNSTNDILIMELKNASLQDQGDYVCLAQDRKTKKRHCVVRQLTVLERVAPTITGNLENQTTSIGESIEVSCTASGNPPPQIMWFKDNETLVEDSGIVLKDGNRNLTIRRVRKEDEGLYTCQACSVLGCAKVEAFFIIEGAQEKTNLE
- experiment: radioactive equilibrium binding, 1 nM KDR-Fc
Provide a numeric answer, followed by its unit.

Consider the following illustrative entries.
binder="2′DelB7 PR4 (designed binder, Del 1-8) EVVAATPTSLLISWRHPHFPTRYYRITYGETGGNSPVQEFTVPLQPPTATISGLKPGVDYTITGYAVTVGYNNRELLTPISINYRT" reported_metric="Binding to 1 nM KDR, %" observed=32%
binder="2′DelG5 PR4 (designed binder, Del 1-8) EVVAATPTSLLISWRHPHFPTRYYRITYGETGGNSPVQEFTVPLQPPTATISGLKPGVDYTITGYAVTVGQNNHELLTPISINYRT" reported_metric="Binding to 1 nM KDR, %" observed=19%
binder="1′DelE2 PR4 (designed binder, Del 1-8) EVVAATPTSLLISWRHPHFPTRYYRITYGETGGNSPVQEFTVPLQPPTATISGLKPGVDYTITGYAVTVGQNDHELLTPISINYRT" reported_metric="Binding to 1 nM KDR, %" observed=16%
binder="1′DelH5 PR4 (designed binder, Del 1-8) EVVAATPTSLLISWRHPHFPTRYYRITYGETGGNSPVQEFTVPLQPPTATISGLKPGVDYTITGYAVTVAQNDRELFTPISINYRT" reported_metric="Binding to 1 nM KDR, %" observed=17%
binder="3F10 PR3 (designed binder, Del 1-8) EVVAATPTSLLISWRHPHFPTRYYRITYGETGGNSPVQEFTVPLQPPTATISGLKPGVDYTITGYAVTLAQDDHELLTPISINYRT" reported_metric="Binding to 1 nM KDR, %" observed=16%
binder="3′B4 PR4 (designed binder, Del 1-8) EVVAATPTSLLISWRHPHFPTRYYRITYGETGGNSPVQEFTVPLQPPTATISGLKPGVDYTITGYAVTVAWNGHELMTPISINYRT" reported_metric="Binding to 1 nM KDR, %" observed=38%

Please state, for each entry, its recorded Binding to 1 nM KDR, %.
1. 3′A9 PR4 (designed binder, Del 1-8) EVVAATPTSLLISWRHPHFPTRYYRITYGETGGNSPVQEFTVPLQPPTATISGLKPGVDYTITGYAVTLAHNDRELLTPISINYRT
2. 2′Del D5 PR4 (designed binder, Del 1-8) EVVAATPTSLLISWRHPHFPTRYYRITYGETGGNSPVQEFTVPLQPPTATISGLKPGVDYTITGYAVTVAWNDHMLMTPISINYRT
3. 3′E1 PR4 (designed binder, Del 1-8) EVVAATPTSLLISWRHPHFPTRYYRITYGETGGNSPVQEFTVPLQPPTATISGLKPGVDYTITGYAVTVAPNGHELFTPISINYRT

OUT:
1. 25%
2. 18%
3. 32%
